- TESTED_ON: EphB2 (receptor of Table 1)
- TEST_DETAILS: inhibition of ephrin-B2 AP binding to EphB2 (panning receptor); biotinylated and non-biotinylated peptide gave the same result
MEASURED_METRIC: IC50

Recorded IC50 of SNEWIQPRLPQH (Panned on EphB2; Footnote e: biotinylated and non-biotinylated peptides gave the same IC50) [SNEWIQPRLPQH peptide (SEQ ID NO:18)] , please.
~15 µM
